- assay name: yeast display, Sf9 membrane polyspecificity reagent, FACS + sequencing; frameworks hold sequencing errors
measured property: polyreactivity (PSR sort gate)

Reference set, count: 6
ordered residues	polyreactivity (PSR sort gate)
QVQLVESGGGLVQAGGSLRLSCAASGSTFKFYGVGWYRQAPGKERQLVASITSSSGPTYYADSVKGRFTISRDNAKYTVYLQLNSLKPEDPAVYDCNKAWRRYWLRGDYWGQGKQVTVSS	low polyreactivity
QVQLVESGGALVQAGGSLRLSCAASGITFWKYTMGWYRQAPGKERELVASIRIGGSTYYADSVKGRFTISRDNAKNTVYLQMNSLKPEDTAVYYCATDSRLWGQGTQVTVSS	high polyreactivity
QVQLVESGGGLVQAGGSLRLSCAASGFTFTPYGMGWYRQAPGKERALVAAITWNGGRTYYADSVKGRFTISRDNAKNTVYLQMNSLKPEDTAVDYCAAVAWSWQKRGYWGQGTQVTVSS	high polyreactivity
QVQLVESGGGLVQAGGSLRLSCAASGRILGDNVMGWYRQAPGKERELVAAISSGSGSTYYADSVKGRFTISRDKAKNTVYLQMNSLKPEDTAVYYCAAGPYIYPGYDYWGQGTQVTVSS	low polyreactivity
QVQLVESGGGLVQAGGSLRLSCAASGRIFGSYAMGWYRQAPGKERELVAAITTDDSTNYADSVKGRFTISRDNAKNTVYLQMNSLKPEDTAVYYCNAERWDELFDSWGQGTQVTVSS	low polyreactivity
QVQLVESGGGLVQAGGILSLSCAASGFIFLYNMGWYRQAPGKEWQLVADISTGVSTNYADSVKGRFTISRDNAKNSVYLQMNSLKPEDTAVYYCAAVYYNGYQYEPWYDYWGQGTQVTVSS	low polyreactivity

For the sequence "QLQLVESGGGLVQAGGSLRLSCAASGYTIIQYAMGWYRQAPGKERELVAGITWSGGSTYADSVKGRFSISRDNAKNTVYLQMNSLKPEDTAVYYCAADDRDIYQYGTPYGSGIRYDYWGQGTQVTVSS" , give its reported polyreactivity (PSR sort gate).
low polyreactivity

For the sequence "QVQLVESGGGLVQAGGSLRFSCAASGSTFAYNDMGWYRQAPGKERELVADIRSGGNTNYADSVKGRFTISRDNAKNTVYFQMNSLKPEDTAVYYCATDGYRIDVYHPDYRYDYWGQGTQVTVSS" , give its reported polyreactivity (PSR sort gate).
low polyreactivity

For the sequence "QVQLVESGGGLVQAGGSLRLSCAASGRTFSYYAMGWYRQAPGKERELVAAITSGGGRTYYADSVKGRFTISRDNAKNTVYLQMNSLKPEDTAVYYCNALSTLYNGYDYWGQGTQVTVSS" , give its reported polyreactivity (PSR sort gate).
high polyreactivity

For the sequence "QVQLVESGGGIVQEGGSLSLSCAASGRIFFDYAMGWYRQAPGKERELVADIDWSGGITYYADSVKGRYTISRDNAKNTVYLQMNSLNPEDTAVYYCAVEFDELYPTTAYGEFEYWGQVTQVTVSS" , give its reported polyreactivity (PSR sort gate).
high polyreactivity

For the sequence "QVQLVESGGGLVQAGGSLRLSGAASGFIFGSYAMGWYRQAPGKERELVAAISRSGGRTYYADSVKGRFTISRDNAKNTVYLQMNSLKPEYTAVYYCNAVGYGVFFRSSDRTKFDYWGQGTQVTVSS" , give its reported polyreactivity (PSR sort gate).
high polyreactivity
